Could you please report measured inhibition in vivo at 1 mg/kg for the items listed next?
- Tested on: normal rats
- Experimental details: Effect on blood pressure of normal rats by single oral administration
- Format: in vivo, Wistar rats
- Conditions used: Rattus norvegicus, po, 8 h; 1.0 mg/kg p.o., single, normal rats; read-out: blood pressure reduction at 8 h after the administration
Just the number in %, nothing appended.

Inquiry: What does the record list as inhibition in vivo at 1 mg/kg for CCOc1nc2cccc(C(=O)OCc3oc(=O)oc3C)c2n1Cc1ccc(-c2ccccc2-c2noc(=O)[nH]2)cc1 [Azilsartan medoxomil, reference compound] ?
Reply text: 6.4

Inquiry: Quick check: inhibition in vivo at 1 mg/kg of CCOc1nc2cccc(C(=O)OC3CCc4c3no[n+]4[O-])c2n1Cc1ccc(-c2ccccc2-c2noc(=O)[nH]2)cc1 (stereo not drawn) ?
Reply text: 3.4

Inquiry: What does the data say about its inhibition in vivo at 1 mg/kg? Entry: CCOc1nc2cccc(C(=O)OC3COC4C(O[N+](=O)[O-])COC34)c2n1Cc1ccc(-c2ccccc2-c2noc(=O)[nH]2)cc1 (stereo not drawn)
Reply text: 2.5

Inquiry: Can you share its inhibition in vivo at 1 mg/kg? I mean this compound: CCOc1nc2cccc(C(=O)OC(C)OC(=O)OCc3ccn(C)c3)c2n1Cc1ccc(-c2ccccc2-c2noc(=O)[nH]2)cc1 (stereo not drawn)
Reply text: 6.4

Inquiry: # lookup: inhibition in vivo at 1 mg/kg of CCOc1nc2cccc(C(=O)OCOC(=O)OCc3ccn(C)c3)c2n1Cc1ccc(-c2ccccc2-c2noc(=O)[nH]2)cc1
Reply text: 5.2

Inquiry: inhibition in vivo at 1 mg/kg lookup needed for CCOc1nc2cccc(C(=O)OCCCCO[N+](=O)[O-])c2n1Cc1ccc(-c2ccccc2-c2noc(=O)[nH]2)cc1 , thanks.
Reply text: 4.6

* * *

- System: spontaneously hypertensive rats (SHR)
- Experimental details: Effect on reducing blood pressure of spontaneously hypertensive rats (SHR) by multiple oral administrations
- Format: in vivo
- Conditions used: Rattus norvegicus; 0.5 mg/kg oral, SHR; read-out: Heart Rate (effect on reducing heart rate)
Rule: Fulfilled for inhibition in vivo at 0.5 mg/kg not less than 20%, Not fulfilled for anything less.

Inquiry: Threshold query (inhibition in vivo at 0.5 mg/kg >= 20%) on CCOc1nc2cccc(C(=O)OCc3no[n+]([O-])c3C#N)c2n1Cc1ccc(-c2ccccc2-c2noc(=O)[nH]2)cc1
Reply text: Not fulfilled

Inquiry: Does CCOc1nc2cccc(C(=O)OCOC(=O)OCc3no[n+]([O-])c3C)c2n1Cc1ccc(-c2ccccc2-c2noc(=O)[nH]2)cc1 have a reported inhibition in vivo at 0.5 mg/kg of at least 20%?
Reply text: Not fulfilled

Inquiry: Kindly determine if inhibition in vivo at 0.5 mg/kg recorded for CCOc1nc2cccc(C(=O)OCc3c(-c4ccccc4)no[n+]3[O-])c2n1Cc1ccc(-c2ccccc2-c2noc(=O)[nH]2)cc1 is above or exactly 20%.
Reply text: Fulfilled

Inquiry: Has CCOc1nc2cccc(C(=O)OCc3no[n+]([O-])c3CO[N+](=O)[O-])c2n1Cc1ccc(-c2ccccc2-c2noc(=O)[nH]2)cc1 a recorded inhibition in vivo at 0.5 mg/kg greater than or equal to 20%?
Reply text: Not fulfilled

* * *

- Test system: renovascular hypertensive rats
- Experimental details: Effect on reducing blood pressure of renovascular hypertensive rats by single oral administration
- Type: in vivo, Wistar rats
- Conditions used: Rattus norvegicus; 0.5 mg/kg, single oral administration, two-kidney one-clip RHR, measured 1-10 h; read-out: Maximum blood pressure reduction
Parameter measured: inhibition in vivo at 0.5 mg/kg (%)
Response body: numeric value in %, unit text excluded.

Inquiry: Observed inhibition in vivo at 0.5 mg/kg on renovascular hypertensive rats for CCOc1nc2cccc(C(=O)OCc3no[n+]([O-])c3C(C)(C)C)c2n1Cc1ccc(-c2ccccc2-c2noc(=O)[nH]2)cc1 , please.
Reply text: 16

Inquiry: What value of inhibition in vivo at 0.5 mg/kg on renovascular hypertensive rats does CCOc1nc2cccc(C(=O)OCc3c(C)no[n+]3[O-])c2n1Cc1ccc(-c2ccccc2-c2noc(=O)[nH]2)cc1 have?
Reply text: 18

Inquiry: GET /values?readout=inhibition in vivo at 0.5 mg/kg&system=renovascular hypertensive rats&item= CCOc1nc2cccc(C(=O)OC3CCc4c3no[n+]4[O-])c2n1Cc1ccc(-c2ccccc2-c2noc(=O)[nH]2)cc1 (stereo not shown)
Reply text: 20

Inquiry: Can you look up inhibition in vivo at 0.5 mg/kg on renovascular hypertensive rats for CCOc1nc2cccc(C(=O)OCc3oc(=O)c(=O)oc3C)c2n1Cc1ccc(-c2ccccc2-c2noc(=O)[nH]2)cc1 ?
Reply text: 16
